molecular target: human somatostatin receptor subtype 2 (Homo sapiens, UniProt P30874); construct: expressed in transfected cells; assay: Functional assay for SSTR2 agonists (HTRF cAMP); assay type: cell-based; conditions: CHO-K1 cells stably expressing human SST2; NKH477-stimulated cAMP; 20 min at 37 C; read-out: hSST2 cAMP Avg EC50
Sequence (P30874 whole entry): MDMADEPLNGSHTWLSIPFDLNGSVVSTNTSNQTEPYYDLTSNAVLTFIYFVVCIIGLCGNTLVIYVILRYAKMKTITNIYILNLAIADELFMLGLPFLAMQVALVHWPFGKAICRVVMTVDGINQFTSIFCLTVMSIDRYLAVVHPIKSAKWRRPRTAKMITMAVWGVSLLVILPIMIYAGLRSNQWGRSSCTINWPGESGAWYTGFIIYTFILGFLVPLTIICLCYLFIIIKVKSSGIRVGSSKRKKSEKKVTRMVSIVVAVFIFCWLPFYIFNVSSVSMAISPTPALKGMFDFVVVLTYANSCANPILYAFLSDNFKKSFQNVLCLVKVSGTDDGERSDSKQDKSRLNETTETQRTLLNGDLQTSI
pEC50: −log10 of the molar value.
PARAMETER: pEC50

COMPOUND	PARAMETER	MEASURED
CC[C@H](C)[C@@H]([C@@H](CC(=O)N1CCC[C@H]1[C@H](OC)[C@@H](C)C(=O)N[C@H](C)[C@@H](O)c1ccccc1)OC)N(C)C(=O)[C@@H](NC(=O)C(C(C)C)N(C)C(=O)OCc1ccc(NC(=O)[C@H](CCCNC(N)=O)NC(=O)[C@@H](NC(=O)CCOCCC(=O)NCCNc2ncc(-c3cc(C)cc(F)c3)c(N3CCC(N)CC3)c2-c2nc3ccc(Cl)cc3[nH]2)C(C)C)c(O[C@@H]2O[C@H](C(=O)N3CC(N)C3)[C@@H](O)[C@H](O)[C@H]2O)c1)C(C)C (stereo partly shown)	pEC50	9.82
